Cited source: ChEMBL document CHEMBL5291721

Dear all, this message contains AC50 results, target or system Sodium-dependent noradrenaline transporter (Homo sapiens). Also: assay procedure not described here.

Molecule: C[C@H]1C[C@H]2[C@@H]3CCC4=CC(=O)C=C[C@]4(C)[C@@]3(Cl)[C@@H](O)C[C@]2(C)[C@@]1(O)C(=O)CO [BECLOMETHASONE]
Value reported: > 10 µM

*Q* Provide only the value of recorded AC50 for CC(C)C[C@H](CN)CC(=O)O [PREGABALIN]
*A* > 30 µM

*Q* Check the records and state AC50 for "N#Cc1ccccc1-c1cc(-c2ccccn2)cn(-c2ccccc2)c1=O"
*A* > 30 µM

*Q* Name the recorded AC50 of the item CN(c1nccc(=O)[nH]1)C1CCN(c2nc3ccccc3n2Cc2ccc(F)cc2)CC1 [MIZOLASTINE] in your answer.
*A* > 30 µM

*Q* Entry CC(C)(C)NCC(O)c1cc(Cl)c(N)c(Cl)c1 (stereo not drawn) [CLENBUTEROL] needs its AC50 filled in; supply it.
*A* 27.9 µM

*Q* Give AC50 for the following molecule: Cc1cc2nc3c(=O)[nH]c(=O)nc-3n(C[C@H](O)[C@H](O)[C@H](O)COP(=O)(O)O)c2cc1C [RIBOFLAVIN 5'-PHOSPHATE]
*A* > 30 µM

*Q* Look up and state reported AC50 for CC1(C)S[C@@H]2[C@H](NC(=O)[C@H](N)c3ccc(O)cc3)C(=O)N2[C@H]1C(=O)O [AMOXICILLIN]
*A* > 30 µM

*Q* Hello, please tell me recorded AC50 for this one: CC1(C)O[C@@H]2[C@@H](CO[C@@]3(COS(N)(=O)=O)OC(C)(C)O[C@@H]23)O1 [TOPIRAMATE]
*A* > 10 µM
